Sourced from ChEMBL document CHEMBL1932952

Measurement Target: Histone deacetylase 8 (Homo sapiens, UniProt Q9BY41)
Sequence (Q9BY41 whole entry): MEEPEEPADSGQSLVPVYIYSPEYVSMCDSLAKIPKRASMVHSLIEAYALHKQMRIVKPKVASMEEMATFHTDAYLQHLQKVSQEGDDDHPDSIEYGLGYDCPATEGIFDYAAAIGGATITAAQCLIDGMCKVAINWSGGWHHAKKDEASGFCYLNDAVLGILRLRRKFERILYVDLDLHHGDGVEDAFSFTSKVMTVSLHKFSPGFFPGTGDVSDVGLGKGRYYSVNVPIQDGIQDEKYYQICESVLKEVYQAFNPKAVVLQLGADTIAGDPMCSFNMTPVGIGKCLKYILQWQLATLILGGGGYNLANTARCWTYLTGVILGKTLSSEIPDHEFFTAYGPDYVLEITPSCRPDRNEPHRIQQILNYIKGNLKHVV
Protocol: Inhibition of recombinant human HDAC8 using Boc-L-Lys(trifluoroacetyl)-MCA as substrate by fluorogenic enzymatic assay
Kd values by entry
Endpoint Name: Kd (µM)

1) O=C(NO)C(F)(F)C(F)(F)C(F)(F)C(F)(F)C(F)(F)C(F)(F)C(=O)Nc1ccccc1 ... 17
2) O=C(NO)C(F)(F)C(F)(F)C(F)(F)C(F)(F)C(F)(F)C(F)(F)C(=O)Nc1ccc(-c2ccccc2)cc1 ... 57
3) O=C(NO)C(F)(F)C(F)(F)C(F)(F)C(F)(F)C(F)(F)C(F)(F)C(=O)Nc1ccc(I)cc1 ... 36
4) O=C(NO)C(F)(F)C(F)(F)C(F)(F)C(F)(F)C(F)(F)C(F)(F)C(=O)Nc1ccccc1-c1ccccc1 ... 5.3

====

As shown below, each of these molecules has a reported pKd value.
Measurement Target: Histone deacetylase 8 (Homo sapiens)
Protocol: Inhibition of recombinant human HDAC8 using Boc-L-Lys(trifluoroacetyl)-MCA as substrate by fluorogenic enzymatic assay
pKd: −log10 of the molar value.
Endpoint Name: pKd

1. O=C(NO)C(F)(F)C(F)(F)C(F)(F)C(F)(F)C(F)(F)C(F)(F)C(=O)Nc1ccc(Cl)cc1 ... 4.46
2. Cc1ccc(NC(=O)C(F)(F)C(F)(F)C(F)(F)C(F)(F)C(F)(F)C(F)(F)C(=O)NO)cc1 ... 4.47
3. O=C(NO)C(F)(F)C(F)(F)C(F)(F)C(F)(F)C(F)(F)C(F)(F)C(=O)Nc1cccc2ccccc12 ... 4.72
4. Cc1ccc(NC(=O)C(F)(F)C(F)(F)C(F)(F)C(F)(F)C(F)(F)C(F)(F)C(=O)NO)cc1C ... 4.85
5. CC(=O)Nc1ccc(NC(=O)C(F)(F)C(F)(F)C(F)(F)C(F)(F)C(F)(F)C(F)(F)C(=O)NO)cc1 ... 4.44
6. O=C(NO)C(F)(F)C(F)(F)C(F)(F)C(F)(F)C(F)(F)C(F)(F)C(=O)Nc1nc(-c2ccccc2)cs1 ... 5.82
7. O=C(NO)C(F)(F)C(F)(F)C(F)(F)C(F)(F)C(F)(F)C(F)(F)C(=O)Nc1ccc2cc3ccccc3cc2c1 ... 4.22

====

Measurement Target: Protein deacetylase HDAC6 (Homo sapiens)
Sequence (Q9UBN7 whole entry): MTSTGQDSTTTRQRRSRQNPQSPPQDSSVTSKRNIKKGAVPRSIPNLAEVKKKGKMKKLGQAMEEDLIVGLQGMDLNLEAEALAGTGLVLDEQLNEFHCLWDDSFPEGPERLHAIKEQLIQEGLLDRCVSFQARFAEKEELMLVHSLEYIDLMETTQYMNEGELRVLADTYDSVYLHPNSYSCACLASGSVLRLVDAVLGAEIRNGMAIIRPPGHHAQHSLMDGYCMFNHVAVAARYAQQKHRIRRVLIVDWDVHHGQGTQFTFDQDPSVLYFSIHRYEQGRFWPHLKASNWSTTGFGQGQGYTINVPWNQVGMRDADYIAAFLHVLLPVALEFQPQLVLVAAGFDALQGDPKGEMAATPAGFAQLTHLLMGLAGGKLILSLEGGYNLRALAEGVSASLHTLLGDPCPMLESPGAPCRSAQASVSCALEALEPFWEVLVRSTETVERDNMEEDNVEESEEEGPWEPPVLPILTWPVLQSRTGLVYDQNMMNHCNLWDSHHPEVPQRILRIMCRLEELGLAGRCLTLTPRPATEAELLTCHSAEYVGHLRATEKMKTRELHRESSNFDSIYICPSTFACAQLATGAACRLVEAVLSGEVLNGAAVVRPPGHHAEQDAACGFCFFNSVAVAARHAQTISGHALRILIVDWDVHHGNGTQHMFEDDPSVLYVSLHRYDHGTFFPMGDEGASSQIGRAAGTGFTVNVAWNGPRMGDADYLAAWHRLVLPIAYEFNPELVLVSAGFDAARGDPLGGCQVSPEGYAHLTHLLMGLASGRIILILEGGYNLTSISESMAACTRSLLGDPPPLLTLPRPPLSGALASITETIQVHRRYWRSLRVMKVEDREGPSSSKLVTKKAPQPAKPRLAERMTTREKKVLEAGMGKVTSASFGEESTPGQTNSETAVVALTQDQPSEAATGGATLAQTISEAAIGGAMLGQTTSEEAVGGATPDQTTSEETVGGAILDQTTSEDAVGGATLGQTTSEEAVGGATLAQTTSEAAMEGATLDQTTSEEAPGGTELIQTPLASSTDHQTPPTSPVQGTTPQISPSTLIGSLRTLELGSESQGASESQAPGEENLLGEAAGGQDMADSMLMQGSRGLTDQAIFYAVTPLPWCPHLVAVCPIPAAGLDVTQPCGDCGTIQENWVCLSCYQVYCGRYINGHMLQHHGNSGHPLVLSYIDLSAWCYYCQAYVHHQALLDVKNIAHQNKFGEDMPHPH
Protocol: Inhibition of recombinant human HDAC6 using Boc-L-Lys(acetyl)-MCA as substrate by fluorogenic enzymatic assay
pKd: −log10 of the molar value.
We begin with a simple list: items and their reported pKd.
Endpoint Name: pKd

1. O=C(NO)C(F)(F)C(F)(F)C(F)(F)C(F)(F)C(F)(F)C(F)(F)C(=O)Nc1ccc2ccc3cccc4ccc1c2c34 ... 4.77
2. O=C(NO)C(F)(F)C(F)(F)C(F)(F)C(F)(F)C(F)(F)C(F)(F)C(=O)Nc1ccc(-c2cnnn2-c2ccccc2)cc1 ... 4.33
3. O=C(NO)C(F)(F)C(F)(F)C(F)(F)C(F)(F)C(F)(F)C(F)(F)C(=O)Nc1ccc(-c2cn(-c3ccccc3)nn2)cc1 ... 5.09
4. O=C(NO)C(F)(F)C(F)(F)C(F)(F)C(F)(F)C(F)(F)C(F)(F)C(=O)Nc1cccc2cc3ccccc3cc12 ... 5.23
5. O=C(NO)C(F)(F)C(F)(F)C(F)(F)C(F)(F)C(F)(F)C(F)(F)C(=O)Nc1ccc2ccccc2c1 ... 5.17
6. O=C(NO)C(F)(F)C(F)(F)C(F)(F)C(F)(F)C(F)(F)C(F)(F)C(=O)Nc1ccc(-c2ccccc2)cc1 ... 4.31
7. O=C(NO)C(F)(F)C(F)(F)C(F)(F)C(F)(F)C(F)(F)C(F)(F)C(=O)Nc1ccc(Cl)cc1 ... 4.64
8. O=C(NO)C(F)(F)C(F)(F)C(F)(F)C(F)(F)C(F)(F)C(F)(F)C(=O)Nc1ccccc1-c1ccccc1 ... 5.04

====

Entries and their Kd
Measurement Target: Histone deacetylase 1 (Homo sapiens)
Sequence (Q13547 whole entry): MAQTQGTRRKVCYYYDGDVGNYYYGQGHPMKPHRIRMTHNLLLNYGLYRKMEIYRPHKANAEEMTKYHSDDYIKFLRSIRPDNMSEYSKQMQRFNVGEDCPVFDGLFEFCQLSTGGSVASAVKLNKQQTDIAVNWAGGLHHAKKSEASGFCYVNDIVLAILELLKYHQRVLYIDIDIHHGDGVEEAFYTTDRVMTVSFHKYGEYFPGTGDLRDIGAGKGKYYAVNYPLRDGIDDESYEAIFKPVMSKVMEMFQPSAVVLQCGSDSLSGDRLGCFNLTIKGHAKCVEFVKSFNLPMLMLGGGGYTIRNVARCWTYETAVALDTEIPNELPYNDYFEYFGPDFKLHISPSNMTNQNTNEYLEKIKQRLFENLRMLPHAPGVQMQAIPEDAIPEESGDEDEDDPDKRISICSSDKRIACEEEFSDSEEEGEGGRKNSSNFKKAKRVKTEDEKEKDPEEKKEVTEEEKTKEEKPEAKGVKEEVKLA
Protocol: Inhibition of recombinant human HDAC1 using Boc-L-Lys(acetyl)-MCA as substrate by fluorogenic enzymatic assay
Endpoint Name: Kd

1. O=C(NO)C(F)(F)C(F)(F)C(F)(F)C(F)(F)C(F)(F)C(F)(F)C(=O)Nc1ccc(-c2ccccc2)cc1 ... 31 µM
2. O=C(NO)C(F)(F)C(F)(F)C(F)(F)C(F)(F)C(F)(F)C(F)(F)C(=O)Nc1ccc2ccccc2c1 ... 12 µM
3. O=C(NO)C(F)(F)C(F)(F)C(F)(F)C(F)(F)C(F)(F)C(F)(F)C(=O)Nc1cccc2cc3ccccc3cc12 ... 14 µM
4. O=C(Nc1ccccc1)C(F)(F)C(F)(F)C(F)(F)C(F)(F)C(F)(F)C(F)(F)C(=O)Nc1ccccc1 ... > 100 µM
5. N#Cc1ccc(NC(=O)C(F)(F)C(F)(F)C(F)(F)C(F)(F)C(F)(F)C(F)(F)C(=O)NO)cc1 ... 18 µM
6. O=C(NO)C(F)(F)C(F)(F)C(F)(F)C(F)(F)C(F)(F)C(F)(F)C(=O)Nc1cc2ccccc2c2ccccc12 ... 18 µM
7. Cc1ccc(NC(=O)C(F)(F)C(F)(F)C(F)(F)C(F)(F)C(F)(F)C(F)(F)C(=O)NO)cc1C ... 24 µM
8. O=C(NO)C(F)(F)C(F)(F)C(F)(F)C(F)(F)C(F)(F)C(F)(F)C(=O)Nc1ccc2ccc3cccc4ccc1c2c34 ... 22 µM
9. O=C(NO)C(F)(F)C(F)(F)C(F)(F)C(F)(F)C(F)(F)C(F)(F)C(=O)Nc1ccccc1 ... 29 µM
10. O=C(NO)C(F)(F)C(F)(F)C(F)(F)C(F)(F)C(F)(F)C(F)(F)C(=O)Nc1ccc(I)cc1 ... 14 µM
11. O=C(NO)C(F)(F)C(F)(F)C(F)(F)C(F)(F)C(F)(F)C(F)(F)C(=O)Nc1ccc(-c2cn(-c3ccccc3)nn2)cc1 ... > 100 µM
12. O=C(NO)C(F)(F)C(F)(F)C(F)(F)C(F)(F)C(F)(F)C(F)(F)C(=O)Nc1cccc(-c2ccccc2)c1 ... 30 µM
13. Cc1ccc(NC(=O)C(F)(F)C(F)(F)C(F)(F)C(F)(F)C(F)(F)C(F)(F)C(=O)NO)cc1 ... 14 µM
14. O=C(NO)C(F)(F)C(F)(F)C(F)(F)C(F)(F)C(F)(F)C(F)(F)C(=O)Nc1ccccc1-c1ccccc1 ... 49 µM
15. O=C(NO)C(F)(F)C(F)(F)C(F)(F)C(F)(F)C(F)(F)C(F)(F)C(=O)Nc1ccc(Cl)cc1 ... 12 µM
16. O=C(NO)C(F)(F)C(F)(F)C(F)(F)C(F)(F)C(F)(F)C(F)(F)C(=O)Nc1cccc2ccccc12 ... 29 µM
17. O=C(NO)C(F)(F)C(F)(F)C(F)(F)C(F)(F)C(F)(F)C(F)(F)C(=O)Nc1ccc2cc3ccccc3cc2c1 ... 65 µM
18. CCc1cccc(NC(=O)C(F)(F)C(F)(F)C(F)(F)C(F)(F)C(F)(F)C(F)(F)C(=O)NO)c1 ... 16 µM
19. O=C(NO)C(F)(F)C(F)(F)C(F)(F)C(F)(F)C(F)(F)C(F)(F)C(=O)Nc1nc(-c2ccccc2)cs1 ... 2.6 µM
20. O=C(NO)C(F)(F)C(F)(F)C(F)(F)C(F)(F)C(F)(F)C(F)(F)C(=O)Nc1ccc(-c2cnnn2-c2ccccc2)cc1 ... 66 µM
21. CC(=O)Nc1ccc(NC(=O)C(F)(F)C(F)(F)C(F)(F)C(F)(F)C(F)(F)C(F)(F)C(=O)NO)cc1 ... 18 µM

====

Measurement Target: Histone deacetylase 7 (Homo sapiens, UniProt Q8WUI4)
Sequence (Q8WUI4 whole entry): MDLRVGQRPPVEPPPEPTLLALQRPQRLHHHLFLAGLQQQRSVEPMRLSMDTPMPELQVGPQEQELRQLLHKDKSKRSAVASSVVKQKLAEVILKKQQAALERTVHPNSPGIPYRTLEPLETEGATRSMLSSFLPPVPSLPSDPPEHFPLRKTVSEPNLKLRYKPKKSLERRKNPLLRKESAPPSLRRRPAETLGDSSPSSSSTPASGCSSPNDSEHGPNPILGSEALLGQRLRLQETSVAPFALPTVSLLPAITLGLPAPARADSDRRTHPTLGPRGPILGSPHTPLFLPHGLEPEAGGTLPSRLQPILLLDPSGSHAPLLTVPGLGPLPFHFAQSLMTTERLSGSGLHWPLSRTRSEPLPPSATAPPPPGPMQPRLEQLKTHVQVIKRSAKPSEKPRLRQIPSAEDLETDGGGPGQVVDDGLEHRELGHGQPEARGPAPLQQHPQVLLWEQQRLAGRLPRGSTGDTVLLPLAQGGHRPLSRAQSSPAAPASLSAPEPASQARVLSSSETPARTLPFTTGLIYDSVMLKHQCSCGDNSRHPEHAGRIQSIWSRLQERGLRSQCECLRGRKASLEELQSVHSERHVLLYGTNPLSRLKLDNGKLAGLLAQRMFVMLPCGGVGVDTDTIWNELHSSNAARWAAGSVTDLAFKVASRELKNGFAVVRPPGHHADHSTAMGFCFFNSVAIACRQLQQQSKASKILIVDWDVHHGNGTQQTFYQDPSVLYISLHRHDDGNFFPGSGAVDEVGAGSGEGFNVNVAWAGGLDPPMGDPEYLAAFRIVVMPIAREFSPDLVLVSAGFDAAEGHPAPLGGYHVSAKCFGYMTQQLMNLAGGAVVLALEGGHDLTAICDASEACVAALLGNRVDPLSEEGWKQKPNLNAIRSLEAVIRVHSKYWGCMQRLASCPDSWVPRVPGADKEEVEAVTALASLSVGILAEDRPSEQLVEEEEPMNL
Protocol: Inhibition of recombinant human HDAC7 using Boc-L-Lys(trifluoroacetyl)-MCA as substrate by fluorogenic enzymatic assay
Endpoint Name: Kd (µM)

1) O=C(NO)C(F)(F)C(F)(F)C(F)(F)C(F)(F)C(F)(F)C(F)(F)C(=O)Nc1nc(-c2ccccc2)cs1 ... 1.4
2) Cc1ccc(NC(=O)C(F)(F)C(F)(F)C(F)(F)C(F)(F)C(F)(F)C(F)(F)C(=O)NO)cc1 ... 52
3) CC(=O)Nc1ccc(NC(=O)C(F)(F)C(F)(F)C(F)(F)C(F)(F)C(F)(F)C(F)(F)C(=O)NO)cc1 ... 13
4) O=C(NO)C(F)(F)C(F)(F)C(F)(F)C(F)(F)C(F)(F)C(F)(F)C(=O)Nc1ccc(Cl)cc1 ... 19

====

Reported Kd values for a set of compounds
Measurement Target: Protein deacetylase HDAC6 (Homo sapiens)
Protocol: Inhibition of recombinant human HDAC6 using Boc-L-Lys(acetyl)-MCA as substrate by fluorogenic enzymatic assay
Endpoint Name: Kd

1) Cc1ccc(NC(=O)C(F)(F)C(F)(F)C(F)(F)C(F)(F)C(F)(F)C(F)(F)C(=O)NO)cc1C ... 24 µM
2) O=C(NO)C(F)(F)C(F)(F)C(F)(F)C(F)(F)C(F)(F)C(F)(F)C(=O)Nc1ccc2cc3ccccc3cc2c1 ... 11 µM
3) O=C(NO)C(F)(F)C(F)(F)C(F)(F)C(F)(F)C(F)(F)C(F)(F)C(=O)Nc1cc2ccccc2c2ccccc12 ... 10 µM
4) O=C(Nc1ccccc1)C(F)(F)C(F)(F)C(F)(F)C(F)(F)C(F)(F)C(F)(F)C(=O)Nc1ccccc1 ... > 100 µM
5) O=C(NO)C(F)(F)C(F)(F)C(F)(F)C(F)(F)C(F)(F)C(F)(F)C(=O)Nc1cccc(-c2ccccc2)c1 ... 15 µM
6) O=C(NO)C(F)(F)C(F)(F)C(F)(F)C(F)(F)C(F)(F)C(F)(F)C(=O)Nc1nc(-c2ccccc2)cs1 ... 5.4 µM
7) O=C(NO)C(F)(F)C(F)(F)C(F)(F)C(F)(F)C(F)(F)C(F)(F)C(=O)Nc1ccccc1 ... 11 µM
8) O=C(NO)C(F)(F)C(F)(F)C(F)(F)C(F)(F)C(F)(F)C(F)(F)C(=O)Nc1cccc2ccccc12 ... 32 µM
